meta.source: patent US12617779B2

In this section, each of the molecules is paired with its reported Production rate of Alvocidib.
Assay: Evaluation of conversion rate to active form in buffer solution (Experimental Example 1)
Assay type: physicochemical
Details: pH5.0, 0.5 hr, 37° C., 25 umol/L in buffer solution
Procedure: For Examples 1 to 16 and Comparative Examples 1 to 14, the attrition rate of the test compound and the conversion rate of the test compound to Alvocidib in a buffer solution were calculated by the following method. Examples 1 to 16 and Comparative Examples 1 to 14 were each left in buffer solutions adjusted to pH 5.0, 5.5, 6.0, 6.5, 7.0 and 7.4, respectively, at a concentration of 25 umol/L at 37° C. […]
property_label: Production rate of Alvocidib (%)

{"molecule": "COCCN(CC1CCCCN1)C(=O)Oc1cc(O)c2c(=O)cc(-c3ccccc3Cl)oc2c1[C@H]1CCN(C)C[C@H]1O (stereo partly drawn) [Example 12]", "quantitative_readout": 1.1}
{"molecule": "CCNC(=O)Oc1cc(O)c2c(=O)cc(-c3ccccc3Cl)oc2c1[C@H]1CCN(C)C[C@H]1O [Comparative Example 1, reference compound]", "quantitative_readout": 37.9}
{"molecule": "CCN(C[C@H]1CCCCN1)C(=O)Oc1cc(O)c2c(=O)cc(-c3ccccc3Cl)oc2c1[C@H]1CCN(C)C[C@H]1O [Example 2]", "quantitative_readout": 0.3}
{"molecule": "CCN(CCC1CCCCN1)C(=O)Oc1cc(O)c2c(=O)cc(-c3ccccc3Cl)oc2c1[C@H]1CCN(C)C[C@H]1O (stereo partly drawn) [Example 16]", "quantitative_readout": 0.0}
{"molecule": "CN1CC[C@H](c2c(OC(=O)N(CCF)CC3CCCCN3)cc(O)c3c(=O)cc(-c4ccccc4Cl)oc23)[C@H](O)C1 (stereo partly drawn) [Example 11]", "quantitative_readout": 0.9}
{"molecule": "CC(C)N(CC1CCCCN1)C(=O)Oc1cc(O)c2c(=O)cc(-c3ccccc3Cl)oc2c1[C@H]1CCN(C)C[C@H]1O (stereo partly drawn) [Example 10]", "quantitative_readout": 2.1}
